- STUDY_TARGET: MCL-1/Bim interaction (recombinant human MCL-1 protein, residues 171-327; biotinylated human Bim peptide, residues 51-76) (Homo sapiens (Human))
- Sequence (Q07820 171-327): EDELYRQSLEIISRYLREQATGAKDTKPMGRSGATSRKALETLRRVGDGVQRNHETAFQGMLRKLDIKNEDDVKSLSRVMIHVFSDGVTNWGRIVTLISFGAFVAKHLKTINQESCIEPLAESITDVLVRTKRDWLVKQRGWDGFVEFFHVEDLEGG
- METHOD_DESCRIPTION: MCL-1/Bim Binding AlphaLISA Assay
- EXPERIMENTAL_SETUP: 0.0625 nM 6xHis-Mcl-1 (171-327), 0.0625 nM biotinylated-Bim peptide
MEASUREMENT_KIND: IC50 (nM)

CO[C@H]1/C=C/C[C@H](C)C[S@@](=O)(NC(=O)N[C@H]2C[C@@H]2OC)=NC(=O)c2ccc3c(c2)N(C[C@@H]2CC[C@H]21)C[C@@]1(CCCc2cc(Cl)ccc21)CO3 [Example 160]: 0.031
CCC(=O)N[S@]1(=O)=NC(=O)c2ccc3c(c2)N(C[C@@H]2CC[C@H]2[C@@H](OC)CCCCC1)C[C@@]1(CCCc2cc(Cl)ccc21)CO3 [Example 17]: 11.3
CO[C@H]1/C=C/C[C@H](C)C[S@@](=O)(NC(=O)C2CC(C)(O)C2)=NC(=O)c2ccc3c(c2)N(C[C@@H]2CC[C@H]21)C[C@@]1(CCCc2cc(Cl)ccc21)CO3 (stereo partly drawn) [Example 140]: 0.043
CO[C@H]1/C=C/C[C@H](C)C[S@@](=O)(NC(=O)N2CCN(C(C)=O)CC2)=NC(=O)c2ccc3c(c2)N(C[C@@H]2CC[C@H]21)C[C@@]1(CCCc2cc(Cl)ccc21)CO3 [Example 247]: 0.042
CO[C@H]1/C=C/C[C@H](C)C[S@@](=O)(NC(=O)N2CC3(COCCO3)C2)=NC(=O)c2ccc3c(c2)N(C[C@@H]2CC[C@H]21)C[C@@]1(CCCc2cc(Cl)ccc21)CO3 [Example 248]: 0.042
CO[C@H]1/C=C/C[C@H](C)C[S@@](=O)(NC(=O)N[C@@H]2C[C@]2(C)OC)=NC(=O)c2ccc3c(c2)N(C[C@@H]2CC[C@H]21)C[C@@]1(CCCc2cc(Cl)ccc21)CO3 (single isomer, unassigned) [Example 312]: 0.039

Values compiled from patent US10703733B2.
